These data points were gathered from ChEMBL document CHEMBL3988442.

- Tested on: Trypanosoma brucei
- experiment_notes: Trypanosoma brucei 72 hour study
- Assay type: functional, organism-based
- Parameters: scale not given: in the data most compounds retested in dose-response had high values
- test_parameters: 30.3 µM; […]
The whole screen tested about 66,000 compounds, of which about 960 (1.5%) showed an effect of 50% or more. Many of the other results were omitted from the sample, so strong results are more common in it than they were.
Classify by measured Percent Effect: t if it is equal to or exceeds -10%, f if it is smaller.

Quick check, Percent Effect >= -10%? `Cc1ccc(CN(CCCN2CCOCC2)Cc2[nH]cnc2C)o1.O=C(O)CC(O)(CC(=O)O)C(=O)O` f

Another molecule: `CCn1cc(Cl)c(C(=O)NCCOC)n1` f

Again, but for `C=C(C)CN1CCC(NC(=O)Nc2ccc(F)c(C(=O)NC)c2)CC1` t

Okay, and Cc1nn(C)c(C)c1C1CCCN1CC(=O)Nc1nccs1 (stereo unspecified) ? t

Now the same for O=C(C1CCOC1)N1CCN(CCn2cccn2)c2ncccc2C1.O=C(O)C(F)(F)F (stereo unspecified) f

Item: COc1ncccc1C(=O)N1CCC2(CC1)CC(OC)CO2.O=C(O)C(F)(F)F (stereo unspecified) f
